Test system: P388 leukemia ip, CD2F1 mice, survival T/C
Test: NCI In Vivo Anticancer Drug Screen. Data for tumor model P388 Leukemia (intraperitoneal) in CD2F1 (CDF1) mice
Conditions: endpoint: median survival time; dose: 100.0 mg/kg/injection; schedule: Q04DX003 (ip); vehicle: Klucel (hydroxypropylcellulose) (HPC); higher = longer survival
Inconclusive results and toxic doses are left out.
Assignment: determine reported T/C for the given compounds.

A selection of reference data follows.
{"compound": "OC(CCl)c1ccc2ccc3c(c2c1)Nc1ccccc1S3 (configuration not stated)", "assay_target": "P388 leukemia ip, CD2F1 mice, survival T/C", "T/C": "107 % of control"}
{"compound": "CC(=O)Oc1c2ccsc2cc2sccc12", "assay_target": "P388 leukemia ip, CD2F1 mice, survival T/C", "T/C": "100 % of control"}
{"compound": "O=C1OCc2nc3ccccc3cc21", "assay_target": "P388 leukemia ip, CD2F1 mice, survival T/C", "T/C": "98 % of control"}

Give T/C for all compounds that follow.
1. Nc1ccc(S(=O)(=O)CCCl)cc1
2. Cc1ccc(S(=O)(=O)OC[C@H]2CCCC[C@H]2COS(=O)(=O)c2ccc(C)cc2)cc1
3. O=c1c2ccccc2nnn1O

1. 107 % of control
2. 113 % of control
3. 108 % of control

Identify the reported T/C for the following entry. OC(CCl)Cn1nc2ccccc2n1 (configuration not stated) 99 % of control

Ref: PubChem BioAssay AID330
